Test system: E. coli modified with PMBN
Assay: Broth microdilution MIC testing
Assay type: cell-based, Escherichia coli
Conditions: Escherichia coli, read-out: MIC E. coli +PMBP
reported.property: log10(MIC) (log10 of the value in µg/mL)
Kindly note that the scale is log10 and the underlying MIC is in µg/mL.

Guide cases for log10(MIC), answers given:
- compound: "Oc1ccccc1CN1CCc2nc(-c3ccccn3)nc(O)c2C1 [Compound 321522]"
  tested.on: "E. coli modified with PMBN"
  observed.measurement: 1.81
- compound: "Oc1nc(-c2ccccn2)nc2c1CN(Cc1ccc(F)cc1)CC2 [Compound 321521]"
  tested.on: "E. coli modified with PMBN"
  observed.measurement: 1.81

Entry under test: Clc1ccc(CN2CCc3nc(-c4ccccn4)ncc3C2)cc1 [Compound 323355] . Its log10(MIC) was 1.81

// sample CC1CN(Cc2ccc(Cl)cc2)Cc2c1nc(-c1ccccn1)[nH]c2=O (centres unmarked) [Compound 332054] , its log10(MIC) was 0.00

# compound Oc1nc(-c2ccccn2)nc2c1CN(Cc1ccccc1)CC2 [Compound 321524] ; its log10(MIC) = 1.81

log10(MIC) recorded for this compound, O=C(Cc1ccc(Cl)cc1)N1CCc2nc(-c3ccccn3)[nH]c(=O)c2C1 [Compound 323369] , is 1.51

Value of measured log10(MIC) for the entry O=c1[nH]c(-c2ccccn2)nc2c1CCN(Cc1ccc(Cl)cc1)CC2 [Compound 332058] : 0.60
